B1: DLC1 (parent)
chain: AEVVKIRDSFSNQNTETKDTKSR

Variants of: B1
Test: protein stability index of a GFP-peptide fusion (GPS, HEK-293T) (PSI 1-6); higher = more stable;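 note: lentivirally expressed fusions sorted by FACS into six bins by GFP to DsRed ratio, PSI derived from sequencing read proportions per bin multiplied by bin number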
Details: c terminus: native
Collected protein stability index values appear next to each entry.
Lab note: record the figure alone, no unit after it.

sequence_variant=S22R val=2.75
sequence_variant=S22C val=1.82
sequence_variant=N12A val=2.33
sequence_variant=K21N val=5.59

From here, focus on the item given below.
protein stability index recorded for this variant, `R7A` , is 3.56
